system: CAKI-1 renal; test: NCI tumour cell line growth inhibition, 48 h
Property name: GI50

*Q* Item under review: CN(C)c1ccc2[nH]c(O)c(C=Nc3ccc(S(N)(=O)=O)cc3)c2c1 . Reported GI50?
*A* > 25 µM

*Q* Also check COc1ccc(C(=O)c2ccc(OC)cc2OC)cc1
*A* 3.75 µM

*Q* Again, but for CCOC(=O)c1ccc2[nH]c(Cc3[nH]c4ccc(C(=O)OCC)cc4c3C)c(C)c2c1
*A* 1.55 µM

*Q* What about this compound? O=C(/C=C/C12c3ccccc3C(c3ccccc31)C1C(=O)NC(=O)C12)c1ccco1 (stereo not given)
*A* 3.74 µM

*Q* Note, next up: CC1=C([Se]CC(OC(=O)[C@@H](CSSC(C)(C)C)NC(=O)C(C)(C)C)C(=O)NCCCCCC(=O)OCc2ccccc2)C(=O)c2ccccc2C1=O (stereo not given in full)
*A* 2.18 µM

---

Give TGI for every item shown.
system: SK-MEL-28 melanoma; test: NCI tumour cell line growth inhibition, 48 h
The reply should contain only the number, in µM.

*Q* May I ask what TGI has been recorded for N#C/C(=C\c1ccc(Cl)cc1)n1nnc2cc(F)c(F)cc21 ?
*A* 4.38

*Q* Please answer likewise for COc1cc(/C=C/C(=O)CC(=O)/C=C/c2ccc(OC(=O)CCNC34CC5CC(CC(C5)C3)C4)c(OC)c2)ccc1OC(=O)CCNC12CC3CC(CC(C3)C1)C2
*A* 17.2

*Q* Another compound to check: CCOP(=O)(CCC(O)CNc1nc(N)nc(Cl)c1N=Nc1ccc(Cl)cc1)OCC (stereo not given)
*A* 25.9

*Q* Queued: CC(=O)CCC(=O)CC(O)(C(F)(F)F)C(F)(F)F
*A* 39.6

---

tested on: RXF 393 renal; assay: NCI tumour cell line growth inhibition, 48 h
Property name: TGI (µM)
Report only the number, with the unit µM understood.

*Q* Any idea what its TGI is? The molecule is CC(C)[Si](OCC/C=C/C1CCC(=O)C1C(O)C1CCCCC1)(C(C)C)C(C)C (stereo not given)
*A* 26.4

*Q* Can you check CCCN(CCC)C(=S)N/N=C/c1cccc(C)n1 next?
*A* 0.637

*Q* Same question, COc1ccc(C(=O)c2ccc(OC)cc2OC)cc1 this time
*A* 6.15

*Q* Input COC(=O)c1cccc(C)c1C1CN=NC12Cc1c(ccc(C)c1C)C2=O (stereo not given)
*A* 92.4

*Q* And what about the molecule C=C(CO)[C@H]1CC/C(C)=C/CC/C(C)=C/C/C=C(\C)[C@H](O)C1 ?
*A* 42.1

*Q* Next: N#C/C(=C\c1ccc(Cl)cc1)n1nnc2cc(F)c(F)cc21
*A* 3.11

*Q* Proceed to CCC[CH2][Sn]([CH2]CCC)([O]C(=O)c1cccc(F)c1F)[O][Sn]([CH2]CCC)([CH2]CCC)[O]C(=O)c1cccc(F)c1F
*A* 0.105

*Q* Now try c1ccc2c(OCC3CO3)ccc(OCC3CO3)c2c1 (stereo not given) .
*A* 7.71

*Q* And then O=C(CSc1nc2sc3c(c2c(=O)n1-c1ccccc1)CCCCC3)N/N=C/c1ccc(F)cc1 , what is it?
*A* 7.18

*Q* Could you do the same for CCCN1C(=O)/C(=C/c2ccc(O)cc2)SC1=Nc1ccccc1 , please?
*A* 51.4

*Q* Ok, now O=C(c1cccs1)c1c(C(F)(F)F)n([O-])c2cc(C(F)(F)F)ccc2[n+]1=O
*A* 0.351

*Q* Here is the next molecule: Cc1cccc(Oc2ccc(Nc3ncnc4ccc(NC(=O)CN5CCN(C)CC5)cc34)cc2Cl)c1
*A* 3.09

*Q* Repeat for the following molecule: COc1cc(/C=C2\C[C@H]3[C@@H]4CC=C5C[C@@H](OC(C)=O)CC[C@]5(C)[C@H]4CC[C@]3(C)[C@H]2OC(C)=O)ccc1OCCCn1ccnc1
*A* 10.4

*Q* Field entry: CC(=O)C1=C(O)C2(O)C(=O)c3c(c(C)c4ccc(C)c(O)c4c3O)CC2C(N)C1=O (stereo not given)
*A* 20

*Q* Same thing, different molecule: COc1cc(N)ccc1Nc1c2ccccc2nc2ccccc12
*A* 27

*Q* And what about the molecule N#Cc1c(N)nc(N2CCOCC2)c(C#N)c1-c1cccc(O)c1 ?
*A* 95.1

*Q* How about Cc1cc(Nc2nc(N3CCOCC3)nc3ccccc23)n[nH]1 ?
*A* 6.17

---

system: CCRF-CEM leukemia; assay: NCI tumour cell line growth inhibition, 48 h
Property name: TGI

*Q* Data request, read-out TGI, for COc1ccc2c(c1)-c1c(c3ccccc3n1CCN1CCCCC1)CC2
*A* 74 µM

*Q* Item: COc1ccc(OC)c2c(=O)cc(-c3ccccc3)[nH]c12
*A* > 100 µM

*Q* Now consider COc1cc2c(cc1OCCCCCN1CCN(c3cc(=O)oc4c(C)c(OC)ccc34)CC1)N=C[C@@H]1CCCN1C2=O and answer again.
*A* 0.106 µM

*Q* Let us now turn to CCCN1C(=O)/C(=C/c2ccc(O)cc2)SC1=Nc1ccccc1
*A* > 100 µM

*Q* Let us now turn to C=C1C(=O)O[C@H]2[C@H]1CC/C(COC(=O)N[C@@H](Cc1c[nH]c3ccccc13)C(=O)OC)=C\CC[C@@]1(C)O[C@@H]21
*A* 3.18 µM

*Q* Try this compound too: CC1(C)C[C@H]2C3=CC[C@@H]4[C@@]5(C)CC[C@H](O)C(C)(C)[C@@H]5CC[C@@]4(C)[C@]3(C)C[C@@H](O)[C@@]23C[C@@H]1OC3=O
*A* > 100 µM

*Q* Then this compound: NC(=O)CC1(O)C=CC(=O)C=C1
*A* > 100 µM

*Q* Next compound up: Nc1c(C(=O)Nc2cccc3ccccc23)sc2nc3c(cc12)CCCCC3
*A* > 50 µM

*Q* Thanks! And Nc1nc(F)nc2c1ncn2C1OC(COP(=O)(O)O)C(O)C1O (centres undefined) ?
*A* 202 µM

*Q* Same for Cn1cc(C(=O)/C(Cl)=C(\Cl)C(=O)O)c2ccccc21
*A* > 100 µM

*Q* Also COc1cc(-c2ccc(-[n+]3nc(-c4ccc([N+](=O)[O-])cc4)nn3-c3ccc([N+](=O)[O-])cc3)c(OC)c2)ccc1-[n+]1nc(-c2ccc([N+](=O)[O-])cc2)nn1-c1ccc([N+](=O)[O-])cc1 , if possible.
*A* > 100 µM

*Q* Now the same for O=C(CSc1nc2sc3c(c2c(=O)n1-c1ccccc1)CCCCC3)N/N=C/c1ccc(F)cc1
*A* > 100 µM

*Q* Another compound: COC(=O)C1=C(C(=O)OC)C(C(=O)c2ccccc2)N2N=C(c3ccc(Cl)cc3)C=CC12 (centres undefined)
*A* > 100 µM

*Q* And for N#CC(c1ccc(Cl)cc1)c1cccc(Cl)n1 (centres undefined) ?
*A* > 100 µM

*Q* Try the compound O=C1OC(c2ccccc2)=N/C1=C/c1cccs1
*A* 75.1 µM

*Q* Also need O=C1OC2(c3ccccc31)c1cc(I)c(O)c(I)c1Oc1c2cc(I)c(O)c1I , thanks.
*A* > 100 µM

*Q* Now this one: NC1=NN(c2ccccc2)C(=O)C1C(=O)C(=O)Nc1cccc(C(F)(F)F)c1 (centres undefined)
*A* > 100 µM

*Q* // repeat for Cc1cc(Cl)ccc1NC(=O)/C(CC(=O)CC(c1ccccc1)c1c(O)c2ccccc2oc1=O)=N\O (centres undefined) and report
*A* > 100 µM

*Q* Moving on to the next compound: COCC1OCCN1C (centres undefined)
*A* > 100 µM

---

test system: SR leukemia; experiment: NCI tumour cell line growth inhibition, 48 h; in the data active means GI50 below about 0.43 µM; inactive means the rest
Respond with a class label; see YES = active, NO = inactive

*Q* Identify the outcome logged in this assay for the compound shown: N#Cc1c(SCc2ccccc2)nc2[nH]c(=S)[nH]c(=S)c2c1-c1ccco1
*A* NO

*Q* Queued: COc1ccc(C(=O)c2ccc(OC)cc2OC)cc1
*A* NO

*Q* What do we get for Fc1ccc(Nc2ccc3cc(OCCCN4CCOCC4)ccc3n2)cc1F ?
*A* NO

*Q* One more compound: CCOC(=O)c1ccc(C(O)CC(=O)OC(C)(C)C)[nH]1 (stereo not given)
*A* NO

*Q* Repeat for the following compound: COc1cc(-c2ccc(-[n+]3nc(-c4ccc([N+](=O)[O-])cc4)nn3-c3ccc([N+](=O)[O-])cc3)c(OC)c2)ccc1-[n+]1nc(-c2ccc([N+](=O)[O-])cc2)nn1-c1ccc([N+](=O)[O-])cc1
*A* NO

*Q* How about CC(=O)[CH-]C(C)=O.CC(=O)[CH-]C(C)=O.CC(=O)[CH-]C(C)=O.[Cl-].[Hf+4] ?
*A* NO

*Q* Same read-out for C=C1C(=O)O[C@H]2[C@H]1CC/C(COC(=O)NCCc1c[nH]c3ccccc13)=C\CC[C@@]1(C)O[C@@H]21 ?
*A* NO

*Q* Same question for COc1ccc2c(c1)/C(=C/c1c(-c3ccc(C)cc3)nc3sc(C)cn13)C(=O)N2 please.
*A* NO

*Q* And for COc1cc2c3c(n(CCCn4ccnc4)c(=O)c2cc1OC)-c1ccccc1C3=O ?
*A* YES

*Q* Same question, Cc1cccc(Oc2ccc(Nc3ncnc4ccc(NC(=O)CN5CCN(C)CC5)cc34)cc2Cl)c1 this time
*A* NO
